target: DNMT1 (amino acids 621–1616) (Homo sapiens); construct: RFTS-lacking DNMT1, amino acids 621–1616; made in house; test: Detergent test, endonuclease-coupled DNA methylation assay; assay type: biochemical; conditions: 5 µM compound, presence of 0.01% Triton X-100; read-out: Percent activity, 0.01% Triton X-100 +
Sequence (P26358 621-1616): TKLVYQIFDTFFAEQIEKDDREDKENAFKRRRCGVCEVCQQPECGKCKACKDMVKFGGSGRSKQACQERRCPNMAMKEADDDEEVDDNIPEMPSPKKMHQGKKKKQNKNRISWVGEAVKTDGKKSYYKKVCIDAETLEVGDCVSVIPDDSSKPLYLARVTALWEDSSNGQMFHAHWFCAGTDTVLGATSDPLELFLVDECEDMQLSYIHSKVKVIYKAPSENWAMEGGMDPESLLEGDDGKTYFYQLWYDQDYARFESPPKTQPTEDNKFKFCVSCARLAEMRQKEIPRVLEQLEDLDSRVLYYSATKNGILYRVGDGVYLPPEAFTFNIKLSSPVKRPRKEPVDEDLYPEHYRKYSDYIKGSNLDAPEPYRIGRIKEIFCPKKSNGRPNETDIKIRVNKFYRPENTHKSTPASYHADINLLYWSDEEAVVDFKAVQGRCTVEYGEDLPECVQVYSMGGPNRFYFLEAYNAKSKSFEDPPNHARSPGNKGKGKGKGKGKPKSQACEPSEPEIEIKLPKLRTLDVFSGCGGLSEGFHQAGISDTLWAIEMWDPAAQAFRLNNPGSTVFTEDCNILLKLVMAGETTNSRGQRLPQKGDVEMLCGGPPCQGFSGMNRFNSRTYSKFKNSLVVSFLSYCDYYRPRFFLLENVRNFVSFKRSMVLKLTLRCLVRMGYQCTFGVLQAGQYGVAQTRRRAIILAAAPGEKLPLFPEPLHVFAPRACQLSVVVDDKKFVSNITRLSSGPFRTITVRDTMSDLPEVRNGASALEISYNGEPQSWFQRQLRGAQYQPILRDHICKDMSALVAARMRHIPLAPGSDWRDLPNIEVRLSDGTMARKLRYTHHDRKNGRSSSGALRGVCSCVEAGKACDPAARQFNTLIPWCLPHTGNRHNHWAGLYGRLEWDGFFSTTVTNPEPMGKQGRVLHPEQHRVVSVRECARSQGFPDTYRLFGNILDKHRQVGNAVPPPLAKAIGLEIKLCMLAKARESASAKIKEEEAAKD
Friendly reminder: remaining activity at 5 µM below 50% is YES, at or above is NO.

compound: O=C1c2ccccc2C(=O)c2c1ccc(O)c2O
class.name: NO
//
compound: CC1/C=C/C=C/C=C/C=C/C=C/C=C/C=C/C(O[C@@H]2O[C@H](C)[C@H](O)[C@@H](O)[C@@H]2N)CC(O)C(C(=O)O)C(O)CC(=O)CC(O)CC(O)CC(O)CC(=O)CCCC(=O)CC(=O)OC1C(C)CC(C)C(O)CC(=O)c1ccc(N)cc1 (stereo partly drawn)
class.name: YES
//
compound: O=C(O)c1cc(O)c2c(c1)[C@@H]([C@H]1c3cc(C(=O)O)cc(O)c3C(=O)c3c(O[C@H]4O[C@H](CO)[C@@H](O)[C@H](O)[C@H]4O)cccc31)c1cccc(O[C@H]3O[C@H](CO)[C@@H](O)[C@H](O)[C@H]3O)c1C2=O
class.name: YES
//
compound: Oc1cc(Cl)ccc1Oc1ccc(Cl)cc1Cl
class.name: YES
//
compound: CC(=O)NCCc1ccc(O)c(-c2c(O)c(O)c3c(c2O)C(=O)c2c(cc(O)c(C(=O)O)c2C(=O)O)C3=O)c1
class.name: NO
//
compound: O=c1c(O)c(-c2ccc(O)c(O)c2)oc2c(O)c(O)cc(O)c12
class.name: YES
